# tested.target: Glucagon-like peptide 1 receptor (Homo sapiens)
# Sequence (P43220 whole entry): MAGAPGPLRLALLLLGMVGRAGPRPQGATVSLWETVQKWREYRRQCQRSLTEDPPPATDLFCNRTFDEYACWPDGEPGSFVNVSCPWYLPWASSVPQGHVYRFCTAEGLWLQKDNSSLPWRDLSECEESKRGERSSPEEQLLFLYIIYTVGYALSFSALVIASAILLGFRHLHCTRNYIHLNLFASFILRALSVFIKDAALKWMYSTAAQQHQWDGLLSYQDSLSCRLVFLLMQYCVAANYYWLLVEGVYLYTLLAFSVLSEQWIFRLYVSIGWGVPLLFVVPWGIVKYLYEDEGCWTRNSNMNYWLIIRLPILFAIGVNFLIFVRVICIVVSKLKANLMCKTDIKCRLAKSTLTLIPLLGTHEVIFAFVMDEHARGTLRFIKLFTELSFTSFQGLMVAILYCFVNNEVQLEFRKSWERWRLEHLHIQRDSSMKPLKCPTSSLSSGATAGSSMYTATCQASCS
# test.summary: Agonist activity at human GLP-1R expressed in HEK293 cells assessed as stimulation of cAMP accumulation incubated for 20 mins
# Format: functional, cell-based
*1 amine or outer side, *2 acyl side, *3 side chain or, on linkers, in order; H or OH if unused. Bridges are numbered along the chain shown (N, C = ends). [ ]: non-standard residue; d: D form. X1 = CCCCCCCCCCCCCCCC(=O)NCCCCCCNC(=O)C(CCCCNC(=O)CCN1C(=O)CC([*:1])C1=O)NC(=O)CCN1C(=O)CC([*:2])C1=O; AEEA = NCCOCCOCC(=O)O; Aib = CC(C)(N)C(=O)O
Assign EC50 to each entry below.
Could you write the number and then its unit?

Problem: Look up EC50 for this substance: H-H[Aib]EGTYTNDVTEYLEEEAAKCFIEWLICGKPSSGAPPSKKKKKK-NH2 (cysteines drawn unpaired)
Result: 36 pM

Problem: Look up EC50 for this substance: H-H[Aib]EGTYTNDVTEYCEEEAAKCFIEWLIKGKPSSGAPPSKKKKKK-NH2 (cysteines drawn unpaired)
Result: 28 pM

Problem: Look up EC50 for this substance: H-H[Aib]EGTYTNDVTEYLEEEAAKCFIEWLICGKPSSGAPPPS[AEEA][AEEA]YGWLDF-NH2 (linker 21-28 via X1)
Result: 41 pM

---

# tested.target: Glucagon-like peptide 1 receptor (Homo sapiens)
# test.summary: Agonist activity at human GLP-1R expressed in HEK293 cells assessed as stimulation of cAMP accumulation incubated for 20 mins
# Assay type: functional, cell-based
*1 amine or outer side, *2 acyl side, *3 side chain or, on linkers, in order; H or OH if unused. Bridges are numbered along the chain shown (N, C = ends). [ ]: non-standard residue; d: D form. X1 = CCCCCCCCCCCCCCCC(=O)NCCCCCCNC(=O)C(CCCCNC(=O)CCN1C(=O)CC([*:1])C1=O)NC(=O)CCN1C(=O)CC([*:2])C1=O; sY = N[C@@H](Cc1ccc(OS(=O)(=O)O)cc1)C(=O)O; AEEA = NCCOCCOCC(=O)O; Aib = CC(C)(N)C(=O)O
Labelling field: enter yes if recorded EC50 is less than 0.05 nM. Enter no if it equals or exceeds that cut-off.

Problem: Field: below-cutoff. Rule: recorded EC50 strictly less than 0.05 nM. Subject: H-H[Aib]EGTYTNDVTEYLEEEAAKECIEWLIKCKPSSGAPPSKKKKKK-NH2 (cysteines drawn unpaired)
Result: no

Problem: Field: below-cutoff. Rule: recorded EC50 strictly less than 0.05 nM. Subject: H-H[Aib]EGTYTNDVTEYCEEEAAKCFIEWLIKGKPSSGAPPPS[AEEA][AEEA][sY]GWMDF-NH2 (cysteines drawn unpaired)
Result: yes

Problem: Field: below-cutoff. Rule: recorded EC50 strictly less than 0.05 nM. Subject: H-H[Aib]EGTYTNDVTEYLCEEAAKECIEWLIKGKPSSGAPPSKKKKKK-NH2 (cysteines drawn unpaired)
Result: no

Problem: Field: below-cutoff. Rule: recorded EC50 strictly less than 0.05 nM. Subject: H-H[Aib]EGTYTNDVTEYCEEEAAKCFIEWLIKGKPSSGAPPPS[AEEA][AEEA]YGWLDF-NH2 (cysteines drawn unpaired)
Result: yes

Problem: Field: below-cutoff. Rule: recorded EC50 strictly less than 0.05 nM. Subject: H-H[Aib]EGTYTNDVTEYLEEEAAKCFIEWLICGKPSSGAPPPS[AEEA][AEEA]YGWLDF-NH2 (cysteines drawn unpaired)
Result: yes

Problem: Field: below-cutoff. Rule: recorded EC50 strictly less than 0.05 nM. Subject: H-HGEGTYTNDVTEYLEEEAAKEFIEWLIKGKPSSGAPPSKKKKKK-NH2
Result: yes

Problem: Field: below-cutoff. Rule: recorded EC50 strictly less than 0.05 nM. Subject: H-H[Aib]EGTYTNDVTEYCEEEAAKCFIEWLIKGKPSSGAPPPS[AEEA][AEEA]YGWLDF-NH2 (linker 14-21 via X1)
Result: yes
